Source of measurements: ChEMBL document CHEMBL1140080

assay: Antiproliferative activity against human H292 cells at 5 uM after 72 hrs by MTT assay; assay type: functional; details: NCI-H292, 72 h
// reported inhibition at 5 µM for each item listed

SMILES REPR	UNITS TEXT	inhibition at 5 µM
Nc1ccc(-c2ccc(/C=C/C(=O)O)cc2Cl)cc1C12CC3CC(CC(C3)C1)C2	%	45
CC1(c2cc(-c3ccc(/C=C/C(=O)O)cc3Cl)ccc2O)CCCCC1	%	63
CC12CC3CC(C)(C1)CC(c1cc(-c4ccc(/C=C/C(=O)O)cc4Cl)ccc1O)(C3)C2	%	66
CCC(CC)(CC)c1cc(-c2ccc(/C=C/C(=O)O)cc2Cl)ccc1O	%	5
CC(=O)Nc1ccc(-c2ccc(/C=C/C(=O)O)cc2Cl)cc1C12CC3CC(CC(C3)C1)C2	%	13

---

test: Growth inhibition of HMVE cells at 0.5 uM after 72 hrs by alamar blue method; type: cell-based; conditions: human, HMVE cells; read-out: GI
RECORDED ENDPOINT: inhibition at 72 h, 0.5 µM (%)

COMPOUND	READING
O=C(O)/C=C/c1ccc(-c2ccc(O)c(C34CC5CC(CC(C5)C3)C4)c2)cc1	90
Cc1cc(C)c(-c2cc(-c3ccc4cc(C(=O)O)ccc4c3C)ccc2O)c(C)c1	17
Cc1c(-c2ccc(O)c(-c3ccc4c(c3)C(C)(C)CCC4(C)C)c2)ccc2cc(C(=O)O)ccc12	60
O=C(O)c1ccc2c(Cl)c(-c3ccc(O)c(C45CC6CC(CC(C6)C4)C5)c3)ccc2c1	45
O=C(O)c1ccc2cc(-c3cccc(C45CC6CC(CC(C6)C4)C5)c3)ccc2c1	36
CC1(C)CC(c2cc(-c3ccc4cc(C(=O)O)ccc4c3)ccc2O)CC(C)(C)C1	50
CC1=C(/C=C/C(C)=C/C=C/C(C)=C/C(=O)O)C(C)(C)CCC1	10
O=C(O)c1ccc2cc(-c3ccc(O)c(C4C5CC6CC(C5)CC4C6)c3)ccc2c1 (centres undefined)	35
CC(C)(C)c1cc(-c2ccc3cc(C(=O)O)ccc3c2)ccc1O	10

---

system: DU-145; test: Antiproliferative activity against human DU145 cells after 72 hrs by MTT assay; type: functional, cell-based; conditions: DU-145, 72 h

SMILES REPR	IC50
CC1(c2cc(-c3ccc(/C=C/C(=O)O)cc3Cl)ccc2O)SCCCS1	> 20 µM
CC12CC3CC(C)(C1)CC(c1cc(-c4ccc(/C=C/C(=O)O)cc4Cl)ccc1O)(C3)C2	> 5 µM
CC(C)(C)C#Cc1cc(-c2ccc(/C=C/C(=O)O)cc2Cl)ccc1O	> 10 µM
CCC(CC)(CC)c1cc(-c2ccc(/C=C/C(=O)O)cc2Cl)ccc1O	> 5 µM
O=C(O)/C=C/c1ccc(-c2ccc(F)cc2)c(Cl)c1	> 100 µM
Cc1cccc(C)c1-c1cc(-c2ccc(/C=C/C(=O)O)cc2Cl)ccc1O	> 10 µM

---

experiment: Antiproliferative activity against human H292 cells after 72 hrs by MTT assay; type: functional, cell-based; conditions: NCI-H292, 72 h
RECORDED ENDPOINT: IC50

SMILES REPR	READING
CC(=O)Nc1ccc(-c2ccc(/C=C/C(=O)O)cc2Cl)cc1C12CC3CC(CC(C3)C1)C2	> 5 µM
CCC(CC)(CC)c1cc(-c2ccc(/C=C/C(=O)O)cc2Cl)ccc1O	> 5 µM
CC1(c2cc(-c3ccc(/C=C/C(=O)O)cc3Cl)ccc2O)SCCCS1	> 20 µM
CC(C)(C)C#Cc1cc(-c2ccc(/C=C/C(=O)O)cc2Cl)ccc1O	> 10 µM
Cc1cccc(C)c1-c1cc(-c2ccc(/C=C/C(=O)O)cc2Cl)ccc1O	> 10 µM
